From: patent US20250388664A1

Each item that follows carries a reported Kd.
target: T1, truncated hTfR1 of SEQ ID NO:122 (human, UniProt P02786 122-760); test: SPR, TfR1 amine-coupled, Fab injected, 1:1 fit
T1 construct: also called human TfR1; Human TfR1
T1 sequence (P02786 other isoform, or with tags, fused parts or gaps limits assumed): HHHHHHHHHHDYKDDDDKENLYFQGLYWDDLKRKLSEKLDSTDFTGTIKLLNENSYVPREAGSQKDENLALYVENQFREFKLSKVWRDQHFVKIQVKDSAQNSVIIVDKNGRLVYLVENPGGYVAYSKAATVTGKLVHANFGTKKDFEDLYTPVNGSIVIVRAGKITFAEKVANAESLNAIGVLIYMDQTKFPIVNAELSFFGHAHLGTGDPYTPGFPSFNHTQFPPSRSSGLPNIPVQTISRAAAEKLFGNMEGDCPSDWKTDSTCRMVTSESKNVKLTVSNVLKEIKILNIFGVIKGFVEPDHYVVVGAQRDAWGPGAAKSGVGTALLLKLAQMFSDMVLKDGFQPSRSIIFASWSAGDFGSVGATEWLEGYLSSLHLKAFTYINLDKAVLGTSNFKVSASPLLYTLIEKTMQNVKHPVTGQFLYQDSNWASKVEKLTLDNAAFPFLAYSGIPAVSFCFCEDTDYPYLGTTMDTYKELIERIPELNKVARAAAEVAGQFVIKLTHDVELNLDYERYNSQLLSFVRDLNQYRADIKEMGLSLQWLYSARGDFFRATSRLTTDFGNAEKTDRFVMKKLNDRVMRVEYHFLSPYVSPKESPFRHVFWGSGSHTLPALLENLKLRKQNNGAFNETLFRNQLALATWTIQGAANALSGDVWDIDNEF
ATTRIBUTE MEASURED: Kd

1. h26D3 variant LC1 Fab (Fab, V domains shown, Single-mutant His-tagged Fab; also called Y31A) VH: EVQLVQSGAEVKKPGSSVKVSCKASGYIFTDYNMDWVRQAPGQGLEWIGDINPDYDTTSYNEKFKGRATLTVDKSTSTAYMELSSLRSEDTAVYYCARGGYSGSSYYHPMDYWGQGTLVTVSS VL: DIQMTQSPSSVSASVGDRVTITCKSSQSLLASTNQKNYLAWYQQKPGKAPKLLIYWASTRESGVPSRFSGSGSGTDFTLTISSLQPEDFATYYCQQYFIYPRTFGQGTKVEIK
14 nM
2. h26D3-Fab (Fab, V domains shown, His-tagged Fab from ExpiCHO; also called humanized 26D3 Fab) VH: EVQLVQSGAEVKKPGSSVKVSCKASGYIFTDYNMDWVRQAPGQGLEWIGDINPDYDTTSYNEKFKGRATLTVDKSTSTAYMELSSLRSEDTAVYYCARGGYSGSSYYHPMDYWGQGTLVTVSS VL: DIQMTQSPSSVSASVGDRVTITCKSSQSLLYSTNQKNYLAWYQQKPGKAPKLLIYWASTRESGVPSRFSGSGSGTDFTLTISSLQPEDFATYYCQQYFIYPRTFGQGTKVEIK
10 nM
3. h26D3 variant HC3 Fab (Fab, V domains shown, Single-mutant His-tagged Fab; also called D35A) VH: EVQLVQSGAEVKKPGSSVKVSCKASGYIFTDYNMAWVRQAPGQGLEWIGDINPDYDTTSYNEKFKGRATLTVDKSTSTAYMELSSLRSEDTAVYYCARGGYSGSSYYHPMDYWGQGTLVTVSS VL: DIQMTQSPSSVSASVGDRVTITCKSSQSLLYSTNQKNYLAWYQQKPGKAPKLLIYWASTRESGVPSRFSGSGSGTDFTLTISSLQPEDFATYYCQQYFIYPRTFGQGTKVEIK
16 nM
